Values compiled from patent US9375484B2.

So I've got a bunch of compounds here, and I need their IC50 values.
Tested on: MDA-MB-231 cells
Test: MTT cytotoxicity of PTX silicate prodrugs
Type: cell-based, human
Conditions: Homo sapiens, MDA-MB-231, 48 h
The figure you give is taken to be in nM; do not add the unit.

Q. Find IC50 (MDA-MB-231 cells) for the entry CCCCCCCCO[Si](OCCCCCCCC)(OCCCCCCCC)O[C@H]1C[C@H]2OC[C@@]2(OC(C)=O)[C@H]2[C@H](OC(=O)c3ccccc3)[C@]3(O)C[C@H](OC(=O)[C@H](O)[C@@H](NC(=O)c4ccccc4)c4ccccc4)C(C)=C([C@@H](OC(C)=O)C(=O)[C@]12C)C3(C)C [Compound 3b, 7-O-(tri-n-octylorthosilyl)paclitaxel]
A. 540

Q. Next entry: CC(=O)O[C@H]1C(=O)[C@@]2(C)[C@H]([C@H](OC(=O)c3ccccc3)[C@]3(O)C[C@H](OC(=O)[C@H](O[Si](OC(C)C)(OC(C)C)OC(C)C)[C@@H](NC(=O)c4ccccc4)c4ccccc4)C(C)=C1C3(C)C)[C@]1(OC(C)=O)CO[C@@H]1C[C@@H]2O [Compound 1c, 2′-O-(tri-i-propylorthosilyl)paclitaxel]
A. 24.5

Q. Next entry: CCO[Si](OCC)(OCC)O[C@H]1C[C@H]2OC[C@@]2(OC(C)=O)[C@H]2[C@H](OC(=O)c3ccccc3)[C@]3(O)C[C@H](OC(=O)[C@H](O)[C@@H](NC(=O)c4ccccc4)c4ccccc4)C(C)=C([C@@H](OC(C)=O)C(=O)[C@]12C)C3(C)C [Compound 3a, 7-O-(triethylorthosilyl)paclitaxel]
A. 21.4

====

So I've got a bunch of compounds here, and I need their krel at C2′ (hydrolysis rate relative to the slowest, 1d) values.
Test: PTX silicate hydrolysis rates by 1H NMR
Assay type: physicochemical
Details: d6-acetone:D2O:TFA 90:9:1, room temperature; 1d = 1.0; ± SD of three trials
Write the number on its own, no unit after it.

Q. Need krel at C2′ (hydrolysis rate relative to the slowest, 1d), item CCO[Si](OCC)(OCC)O[C@@H](C(=O)O[C@H]1C[C@@]2(O)[C@@H](OC(=O)c3ccccc3)[C@@H]3[C@]4(OC(C)=O)CO[C@@H]4C[C@H](O)[C@@]3(C)C(=O)[C@H](OC(C)=O)C(=C1C)C2(C)C)[C@@H](NC(=O)c1ccccc1)c1ccccc1
A. 2200

Q. Next entry: CC(=O)O[C@H]1C(=O)[C@@]2(C)[C@H]([C@H](OC(=O)c3ccccc3)[C@]3(O)C[C@H](OC(=O)[C@H](O[Si](OC(C)C)(OC(C)C)OC(C)C)[C@@H](NC(=O)c4ccccc4)c4ccccc4)C(C)=C1C3(C)C)[C@]1(OC(C)=O)CO[C@@H]1C[C@@H]2O
A. 69

Q. Next entry: CCO[Si](O[C@@H](C(=O)O[C@H]1C[C@@]2(O)[C@@H](OC(=O)c3ccccc3)[C@@H]3[C@]4(OC(C)=O)CO[C@@H]4C[C@H](O)[C@@]3(C)C(=O)[C@H](OC(C)=O)C(=C1C)C2(C)C)[C@@H](NC(=O)c1ccccc1)c1ccccc1)(OC(C)(C)C)OC(C)(C)C
A. 1.0
